- measurementTarget: UniProtKB P57059
pIC50: −log10 of the molar value.
# if value of pIC50 reaches 8, tag y; if it stays below, tag n

Task item: Quick check, pIC50 >= 8? "COc1cc(-c2c3c(C#N)cc(-c4cnn(CC5CC5)c4)cc3nn2C)cc(OC(F)F)c1C(=O)N[C@@H]1C[C@@H]1F"
Reply: y

Task item: hey, is pIC50 for this one >= 8? "COc1cc(-c2c3c(OC)cc(-c4cnn(C)c4)cc3nn2C)cc(OC(F)F)c1C(=O)N[C@@H]1CC1(F)F"
Reply: n

Continuing:
Task item: Decide: is the reported value of pIC50 for "COc1cc(-c2c3c(C#N)cc(-c4cnn(C)c4)cc3nn2C)cc(OC(F)F)c1C(=O)N[C@@H]1CC1(F)F" equal to or greater than 8?
Reply: y

----------
- measurementTarget: GST-tagged SIK2 (Homo sapiens (Human), UniProt Q9H0K1)
- Sequence (Q9H0K1 whole entry): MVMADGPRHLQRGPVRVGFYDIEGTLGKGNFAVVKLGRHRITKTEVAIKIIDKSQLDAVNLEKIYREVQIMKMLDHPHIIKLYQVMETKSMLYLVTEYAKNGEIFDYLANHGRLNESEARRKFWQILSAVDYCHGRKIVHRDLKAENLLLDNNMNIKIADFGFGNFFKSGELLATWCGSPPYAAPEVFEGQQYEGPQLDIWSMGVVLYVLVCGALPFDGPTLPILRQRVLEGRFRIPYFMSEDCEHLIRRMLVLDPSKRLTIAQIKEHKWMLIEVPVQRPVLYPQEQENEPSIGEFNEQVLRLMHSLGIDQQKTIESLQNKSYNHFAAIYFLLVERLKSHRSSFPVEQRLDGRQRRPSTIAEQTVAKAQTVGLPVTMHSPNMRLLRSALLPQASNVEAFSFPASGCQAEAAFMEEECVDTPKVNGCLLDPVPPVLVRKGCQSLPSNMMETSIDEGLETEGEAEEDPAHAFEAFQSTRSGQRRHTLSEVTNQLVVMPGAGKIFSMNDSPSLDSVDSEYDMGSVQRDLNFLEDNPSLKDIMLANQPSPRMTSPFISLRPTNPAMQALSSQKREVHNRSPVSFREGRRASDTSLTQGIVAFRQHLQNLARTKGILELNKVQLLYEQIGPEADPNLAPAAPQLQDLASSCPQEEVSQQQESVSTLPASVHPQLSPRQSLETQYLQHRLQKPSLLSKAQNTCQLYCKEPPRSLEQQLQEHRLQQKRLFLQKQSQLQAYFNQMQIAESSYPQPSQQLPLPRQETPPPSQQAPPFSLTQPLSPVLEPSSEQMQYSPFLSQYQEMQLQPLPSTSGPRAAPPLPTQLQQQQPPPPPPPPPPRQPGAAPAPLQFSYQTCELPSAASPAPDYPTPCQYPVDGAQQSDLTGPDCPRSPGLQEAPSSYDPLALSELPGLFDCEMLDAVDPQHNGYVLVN
- measurementNotes: SIK2 inhibition test (ADP-Glo Max Assay)
- Format: biochemical
- measurementContext: enzyme 3 nM, AMARA Peptide 200 μM, ATP 1 mM, 2 hours room temperature
metric: IC50 (µM)
Give just the numeric value; µM need not be written.

Check out these entries, answers already filled in.
Note to self: IC50 recorded for "COc1cc(-c2c3c(C(F)F)cc(-c4cnn(C)c4)cc3nn2C)cc(OC(F)F)c1C(N)=O" was 0.0146

// sample COc1cc(-n2cnc3cc(-c4cnn(C)c4)ccc32)cc(OC)c1C(=O)NCC(F)F [Comparative Example 2, reference compound] , its IC50 was 0.0864

// switching to the query molecule
The recorded IC50 for "COc1cc(-c2c3c(C#N)cc(-c4cnn(C[C@H](O)C(F)(F)F)c4)cc3nn2C)cc(OC(F)F)c1C(=O)N[C@@H]1CC1(F)F" is 0.0011

----------
Let's go through some pIC50 measurements on GST-tagged SIK1 (Homo sapiens (Human)) together.
Sequence (P57059 whole entry): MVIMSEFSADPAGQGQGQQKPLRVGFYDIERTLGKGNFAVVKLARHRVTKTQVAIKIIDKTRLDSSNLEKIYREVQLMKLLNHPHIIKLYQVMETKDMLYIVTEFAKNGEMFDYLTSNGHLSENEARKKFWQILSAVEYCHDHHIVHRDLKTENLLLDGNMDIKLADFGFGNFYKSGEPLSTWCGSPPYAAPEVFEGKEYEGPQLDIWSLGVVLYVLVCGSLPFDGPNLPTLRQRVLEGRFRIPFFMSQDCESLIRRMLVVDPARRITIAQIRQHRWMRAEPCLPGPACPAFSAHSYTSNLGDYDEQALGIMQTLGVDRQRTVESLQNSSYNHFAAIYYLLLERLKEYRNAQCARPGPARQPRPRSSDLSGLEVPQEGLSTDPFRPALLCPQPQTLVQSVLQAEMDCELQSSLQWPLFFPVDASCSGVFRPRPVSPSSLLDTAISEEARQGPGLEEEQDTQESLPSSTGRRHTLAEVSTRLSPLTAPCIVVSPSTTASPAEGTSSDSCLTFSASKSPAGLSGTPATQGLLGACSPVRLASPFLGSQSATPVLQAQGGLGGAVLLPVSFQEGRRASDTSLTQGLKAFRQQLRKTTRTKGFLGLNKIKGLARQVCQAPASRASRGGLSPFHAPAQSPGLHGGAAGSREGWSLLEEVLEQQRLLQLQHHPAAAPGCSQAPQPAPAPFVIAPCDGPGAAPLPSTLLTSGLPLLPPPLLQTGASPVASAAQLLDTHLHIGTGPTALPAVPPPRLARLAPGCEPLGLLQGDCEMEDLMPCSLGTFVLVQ
// returns pIC50 (minus log10 of molar concentration), number only

Study these solved cases before continuing.
For this compound ( "COCCn1cc(-c2cc(C#N)c3c(-c4cc(OC)c5c(c4)C(C)(C)CNC5=O)n(C)nc3c2)cn1" ), measured pIC50 is 7.98

pIC50 reported for this compound "COc1cc(-c2c3c(C#N)cc(-c4cnn(CC5(O)CCC5)c4)cc3nn2C)cc(OC(F)F)c1C(=O)N[C@@H]1CC1(F)F" : 8.19

Now look at this entry.
Noted for "COc1cc(-c2c3c(OCc4ccc(C)nc4)cc(-c4cnn(C)c4)cc3nn2C)cc(OC(F)F)c1C(=O)N1CC(O)(C(F)(F)F)C1" : its pIC50 reads 8.17

----------
- measurementTarget: UniProtKB Q9H0K1
# reported pIC50; entries follow
Reminder that pIC50 is minus the log10 of a molar concentration.

In the examples that follow, each entry is paired with its recorded pIC50.
Notebook: COc1cc(-c2c3c(C(F)F)cc(-c4cnn([C@@H]5CCOC5)c4)cc3nn2C)cc(OC(F)F)c1C(N)=O [Example 159] , pIC50 read as 8.55

// recorded pIC50 for COc1cc(-c2c3c(C#N)cc(-c4cnn(C)c4)cc3nn2C)cc2c1C(=O)NCC2(C)C [Example 129] : 9.05

// pIC50 value for CCOc1cc(-c2cnn(C)c2)cc2nn(C)c(-c3cc(OC)c4c(c3)[C@@H](C)CNC4=O)c12 (single isomer, unassigned) [Example 163] : 8.85

The compound identified as COc1cc(-c2cnn(C)c2)cc2nn(C)c(-c3cc(OC(F)F)c4c(c3)C(C)CNC4=O)c12 (stereo not shown) [Example 161] registered its pIC50 at 8.89

pIC50 reported for this compound COc1cc(-c2c3c(OC(F)F)cc(-c4cnn(C)c4)cc3nn2C)cc(OC(F)F)c1C(N)=O [Example 131] : 8.35

Note to self: pIC50 recorded for COc1cc(-c2c3c(OCC(F)(F)F)cc(-c4cnn(C)c4)cc3nn2C)cc(OC(F)F)c1C(N)=O [Example 157] was 9.00

Consider now this further compound.
Record COc1cc(-c2c3c(C(F)F)cc(-c4cnn([C@H]5CCOC5)c4)cc3nn2C)cc(OC(F)F)c1C(N)=O [Example 158] . Reported pIC50: 8.66
